The measured values listed here are drawn from patent US20260125400A1.

- Target Under Test: TYK2 (Homo sapiens)
- Construct: Degradation of TYK2 in cells was quantitatively measured using Meso Scale Discovery (MSD) technology; endogenous in cells; host or cells: OCI-LY10
- Sequence (P29597 whole entry): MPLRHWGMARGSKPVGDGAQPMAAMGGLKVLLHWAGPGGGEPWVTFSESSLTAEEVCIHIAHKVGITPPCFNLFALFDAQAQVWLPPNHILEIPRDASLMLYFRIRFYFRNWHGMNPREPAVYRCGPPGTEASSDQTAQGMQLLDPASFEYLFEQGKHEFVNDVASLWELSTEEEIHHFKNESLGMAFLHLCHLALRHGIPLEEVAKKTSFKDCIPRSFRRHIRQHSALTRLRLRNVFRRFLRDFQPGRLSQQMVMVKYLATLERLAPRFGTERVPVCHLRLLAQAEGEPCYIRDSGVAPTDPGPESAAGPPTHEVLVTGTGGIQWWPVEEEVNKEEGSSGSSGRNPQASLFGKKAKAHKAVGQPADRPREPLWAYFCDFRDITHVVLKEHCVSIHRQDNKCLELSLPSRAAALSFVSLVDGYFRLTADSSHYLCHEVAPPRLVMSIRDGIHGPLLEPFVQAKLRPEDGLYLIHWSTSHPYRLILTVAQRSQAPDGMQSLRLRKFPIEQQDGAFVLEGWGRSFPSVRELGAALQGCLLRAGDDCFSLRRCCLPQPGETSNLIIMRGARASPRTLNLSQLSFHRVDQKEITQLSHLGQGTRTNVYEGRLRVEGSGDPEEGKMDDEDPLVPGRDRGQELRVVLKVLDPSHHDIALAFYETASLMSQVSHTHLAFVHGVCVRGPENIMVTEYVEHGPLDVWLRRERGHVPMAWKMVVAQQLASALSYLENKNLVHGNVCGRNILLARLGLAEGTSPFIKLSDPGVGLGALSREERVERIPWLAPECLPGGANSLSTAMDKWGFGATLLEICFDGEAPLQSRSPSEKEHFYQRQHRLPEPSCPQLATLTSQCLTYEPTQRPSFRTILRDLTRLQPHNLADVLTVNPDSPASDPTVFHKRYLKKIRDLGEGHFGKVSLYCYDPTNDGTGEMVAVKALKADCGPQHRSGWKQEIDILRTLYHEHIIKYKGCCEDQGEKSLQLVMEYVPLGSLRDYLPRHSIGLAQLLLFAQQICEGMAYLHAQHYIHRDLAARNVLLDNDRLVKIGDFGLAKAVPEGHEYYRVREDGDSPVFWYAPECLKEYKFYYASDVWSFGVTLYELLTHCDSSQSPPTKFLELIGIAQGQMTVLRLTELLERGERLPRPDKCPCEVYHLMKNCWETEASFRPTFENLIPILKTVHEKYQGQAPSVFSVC
- Assay Details: TYK2 MSD degradation in OCI-LY10 cells
- Format: cell-based
- Condition: TYK2 degradation in OCI-LY10 cells, 4 to 24 hours incubation, read-out: TYK2 MSD OCI-LY10 Rel-DC50
Assignment: determine reported DC50 for the given compounds.

Query :: I'd like to know its DC50. The compound in question is CNc1cc(N2CCc3c(-c4ccc(CN5CC6(CCN(C(=O)c7ccc(OC)c(N8CCC(=O)NC8=O)c7)CC6)C5)cn4)cccc32)nn2c(C(=O)N[C@@H]3C[C@@H]3F)cnc12
Result :: < 1 nM

Query :: Let us now turn to CNc1cc(N2CCc3c(N4CCN(CC5CCC6(CC5)CCN(C(=O)c5ccc(Cl)c(N7CCC(=O)NC7=O)c5)CC6)CC4)cccc32)nn2c(C(=O)NC3CC3)cnc12
Result :: > 100 nM

Query :: Let us now turn to CNc1cc(N2CCc3c(-c4ccc(CN5CCN(Cc6ccc(NC7CCC(=O)NC7=O)c(Cl)c6)CC5)cn4)cccc32)nn2c(C(=O)N[C@@H]3C[C@@H]3F)cnc12 (some centres unmarked)
Result :: < 10 nM

Query :: Let us now turn to CNc1cc(N2CCc3c(-c4ccc(CN5CCC6(CCC(N(C)c7ccc(Cl)c(N8CCC(=O)NC8=O)c7)CC6)CC5)cn4)cccc32)nn2c(C(=O)N[C@@H]3CC[C@H]3OC)cnc12
Result :: < 10 nM

Query :: Let us now turn to CNc1cc(N2CCc3c2cccc3C23CC(CN4CCC(N5CCC6(CCN(C(=O)c7ccc(Cl)c(N8CCC(=O)NC8=O)c7)CC6)CC5)C(F)(F)C4)(C2)C3)nn2c(C(=O)N[C@@H]3C[C@@H]3F)cnc12 (some centres unmarked)
Result :: < 10 nM

Query :: Let us now turn to CNc1cc(N2CCc3c(-c4ncc(CN5CC6(CCN(C(=O)c7cc(N8CCC(=O)NC8=O)c(Cl)cc7F)CC6(F)F)C5)cc4F)cccc32)nn2c(C(=O)NC3CCC3OC)cnc12 (centres unmarked)
Result :: < 1 nM

Query :: Let us now turn to CNc1cc(N2CCc3c(N4CCN(CCC5CCN(c6ccc7c(c6)n(C)c(=O)n7C6CCC(=O)NC6=O)CC5)CC4)cccc32)nn2c(C(=O)NC3CC3)cnc12 (centres unmarked)
Result :: > 100 nM

Query :: Let us now turn to CNc1cc(N2CCc3c(-c4ccc(CN5CCC6(CCN(C(=O)c7ccc(Cl)c(N8CCC(=O)NC8=O)c7)C6)C(F)(F)C5)cn4)cccc32)nn2c(C(=O)N[C@@H]3C[C@@H]3F)cnc12 (some centres unmarked)
Result :: < 1 nM

Query :: Let us now turn to CNc1cc(N2CCc3c(CN4CCC(N5CCC6(CC5)CN(C(=O)c5cc(N7CCC(=O)NC7=O)c(Cl)cn5)C6)C(F)(F)C4)cccc32)nn2c(C(=O)N[C@@H]3CC[C@H]3OC)cnc12 (some centres unmarked)
Result :: < 1 nM

Query :: Let us now turn to CNc1cc(N2CCc3c(-c4ccc(CN5CC6(CCN(C(=O)c7cnc(OC)c(N8CCC(=O)NC8=O)c7)CC6)C5)cn4)cccc32)nn2c(C(=O)N[C@@H]3C[C@@H]3F)cnc12
Result :: < 1 nM

Query :: Let us now turn to CNc1cc(N2CCc3c(-c4ccc(CN5CCC6(CCN(C(=O)c7cc(C)c(Cl)c(N8CCC(=O)NC8=O)c7)CC6)C(F)(F)C5)cn4)cc(F)cc32)nn2c(C(=O)N[C@@H]3C[C@@H]3F)cnc12
Result :: < 10 nM

Query :: Let us now turn to CNc1cc(N2CCc3c(-c4ccc(CN5CCC6(CCN(C(=O)c7ccc(C(F)F)c(N8CCC(=O)NC8=O)c7)CC6)C(F)(F)C5)cn4)cccc32)nn2c(C(=O)N[C@@H]3C[C@@H]3F)cnc12
Result :: < 10 nM

Query :: Let us now turn to CNc1cc(N2CCc3c(N4CCN(CC5CC6(CCN(C(=O)c7ccc(Cl)c(N8CCC(=O)NC8=O)c7)CC6)C5)CC4)cccc32)nn2c(C(=O)NC3CC3)cnc12
Result :: < 10 nM

Query :: Let us now turn to CNc1cc(N2CCc3c(-c4ncc([C@@H](C)N5CC6(CCN(C(=O)c7cc(C)c(Cl)c(N8CCC(=O)NC8=O)c7)CC6(F)F)C5)cc4F)cccc32)nn2c(C(=O)N[C@@H]3CC[C@H]3OC)cnc12
Result :: < 1 nM

Query :: Let us now turn to CNc1cc(N2CCc3c(CN4CCC(N5CCC6(CCN(C(=O)c7cc(F)c(C)c(N8CCC(=O)NC8=O)c7)CC6)CC5)C(F)(F)C4)cccc32)nn2c(C(=O)N[C@@H]3C[C@@H]3F)cnc12 (some centres unmarked)
Result :: < 1 nM

Query :: Let us now turn to CNc1cc(N2CCc3c(-c4ccc(CN5CCC6(CCN(Cc7ccc(Cl)c(N8CCC(=O)NC8=O)c7)CC6)C(F)(F)C5)cn4)cccc32)nn2c(C(=O)N[C@@H]3C[C@@H]3F)cnc12
Result :: > 100 nM

Query :: Let us now turn to CNc1cc(N2CCc3c(-c4ncc(CN5CC6(CCN(C(=O)c7cc(N8CCC(=O)NC8=O)c(OC)cc7F)CC6(F)F)C5)cc4F)cccc32)nn2c(C(=O)N[C@@H]3CC[C@H]3OC)cnc12
Result :: < 1 nM

Query :: Let us now turn to CNc1cc(N2CCc3c(CN4CCC(N5CCC6(CCN(C(=O)c7cc(F)c(C)c(N8CCC(=O)NC8=O)c7)CC6)CC5)C(F)(F)C4)cccc32)nn2c(C(=O)N[C@@H]3CC[C@H]3OC)cnc12 (some centres unmarked)
Result :: < 1 nM

Query :: Let us now turn to CNc1cc(N2CCc3c(CN4CCC(N5CCC(OCC#Cc6cccc7c6n(C)c(=O)n7C6CCC(=O)NC6=O)CC5)C(F)(F)C4)cccc32)nn2c(C(=O)N[C@@H]3C[C@@H]3F)cnc12 (some centres unmarked)
Result :: < 10 nM

Query :: Let us now turn to CNc1cc(N2CCc3c(-c4ccc(CN5CC(F)(F)C6(CCN(C(=O)c7ccc(Cl)c(N8CCC(=O)NC8=O)c7)CC6)C5)cn4)cccc32)nn2c(C(=O)N[C@@H]3C[C@@H]3F)cnc12
Result :: < 10 nM
